# Tested on: broilers
# Protocol text: Breeding test: production performance of broilers
# Assay type: in vivo, yellow-feathered broilers
# Condition description: broilers, 300 ppm in basal daily ration, 20 days
# Description: The test adopted a single-factor random design. […] Taking each repetition as a unit, the test broilers were weighed at the age of 21 days (where provisioning of feeds was stopped for 12 hours, but provisioning of water was not stopped), the feed consumption of the test broilers were calculated, and the average daily feed intake (ADFI, g/d*each broiler), the average daily gain (ADG, g/d*each broiler) and the feed conversion ratio (FCR) were calculated for the test broilers of each group. […]
Marks after values point to notes of the source that are not given here.
Kindly state FCR for each of the entries shown.

The following compounds have reported results that may help.
Ask | Any idea what FCR was measured for NCCCCCCCCCCCCCC(=O)NC(CC(=O)O)C(=O)O (racemic) [Compound 11, N-(14-aminomyristoyl)-DL-aspartic acid] ?
Reply | 2.44 ± 0.04^b

Ask | Any idea what FCR was measured for NCCCCCCCCCC(=O)NC(CC(=O)O)C(=O)O (racemic) [Compound 10, N-(10-aminodecanoyl)-DL-aspartic acid] ?
Reply | 2.42 ± 0.04^b

Ask | Any idea what FCR was measured for NCC(=O)NC(CC(=O)O)C(=O)O (racemic) [Compound 8, N-glycyl-DL-aspartic acid] ?
Reply | 2.49 ± 0.03^ab

Ask | Any idea what FCR was measured for NC(=O)NC(CC(=O)O)C(=O)O (racemic) [Compound 1, N-carbamoyl-DL-aspartic acid] ?
Reply | 2.34 ± 0.03^b

State the recorded FCR for every item in the following list.
1. NCCCC(=O)NC(CC(=O)O)C(=O)O (racemic) [Compound 9, N-(4-aminobutyryl)-DL-aspartic acid]
2. CCOC(=O)CC(NC(N)=O)C(=O)OCC (racemic) [Compound 2, diethyl N-carbamoyl-DL-aspartate]

Reply |
2.39 ± 0.04^b
2.39 ± 0.05^b

###

Kindly state ADG (g/d*each broiler) for each of the entries shown.
# Test system: broilers
# Protocol text: Breeding test: production performance of broilers
# Type: in vivo, yellow-feathered broilers
# Condition description: broilers, 300 ppm in basal daily ration, 20 days
Marks after values point to notes of the source that are not given here.

The following compounds have reported results that may help.
Ask | Any idea what ADG (g/d*each broiler) was measured for NCCCCCCCCCCCCCC(=O)NC(CC(=O)O)C(=O)O (racemic) ?
Reply | 15.02 ± 0.13^b g/d*each broiler

Ask | Any idea what ADG (g/d*each broiler) was measured for CCOC(=O)CC(NC(N)=O)C(=O)OCC (racemic) [Compound 2, diethyl N-carbamoyl-DL-aspartate] ?
Reply | 16.81 ± 0.68^b g/d*each broiler

Ask | Any idea what ADG (g/d*each broiler) was measured for NCC(=O)NC(CC(=O)O)C(=O)O (racemic) ?
Reply | 14.48 ± 0.24^b g/d*each broiler

Ask | Any idea what ADG (g/d*each broiler) was measured for NCCCC(=O)NC(CC(=O)O)C(=O)O (racemic) ?
Reply | 15.84 ± 0.10^b g/d*each broiler

Ask | Any idea what ADG (g/d*each broiler) was measured for NCCCCCCCCCC(=O)NC(CC(=O)O)C(=O)O (racemic) ?
Reply | 14.40 ± 0.15^b g/d*each broiler

Switching to the query record.
Ask | Any idea what ADG (g/d*each broiler) was measured for NC(=O)NC(CC(=O)O)C(=O)O (racemic) ?
Reply | 16.59 ± 0.14^b g/d*each broiler
